tested on: SN12C renal; assay: NCI-60 one-dose screen, 48 h (100 = growth as untreated, 0 = no growth, -100 = all killed); settings: 10 µM unless noted
This is part of a sample that, as a whole, favours compounds with a hit. Of some 83,000 tested, about 20% had one in any assay.
# growth binned as band A = under 60%, band B = from 60% up to 90%, band C = 90% and over

Here's what some known entries look like.
>>> assigned_class("S=c1[nH]cccc1-c1nnc2n1Nc1nc3ccccc3cc1CS2")
"band C"
>>> assigned_class("CC(C)(C#N)N1CCN(c2ccccc2Cl)CC1")
"band C"
>>> assigned_class("Nc1c(C(=O)Nc2cccc3ccncc23)sc2nc3c(cc12)C(=O)CCC3")
"band A"

Ask: Which of the defined bands does the recorded growth of Clc1ccc(N2N=C(c3cccc(Nc4ccncc4)c3)CC2c2ccc3c(c2)OCO3)cc1 (stereo unspecified) sit within?
Reply: band B

Ask: Please answer likewise for O=C(CCN1CCCC1)Nc1ccc2c(Nc3ccccc3)c3ccccc3nc2c1
Reply: band A

Recorded values, source PubChem BioAssay (NCI).
